System: OVCAR-4 ovarian
protocol: NCI tumour cell line growth inhibition, 48 h
measurement name: TGI

## Task Respond only with TGI recorded for C=C1CCC2C3(C)COC(c4ccccc4Cl)OC3CCC2(C)C1/C=C/C1=CCOC1=O (stereo not drawn)
## Result > 100 µM

## Task Respond only with TGI recorded for CC(SCc1ccccc1)C(=O)O (stereo not drawn)
## Result > 100 µM

## Task Respond only with TGI recorded for `COc1cc2nccc(Oc3ccc(NC(=O)c4cn(C(C)C)c(=O)n(-c5ccc(F)cc5)c4=O)cc3F)c2cc1OC`
## Result > 100 µM

## Task Respond only with TGI recorded for `COc1cc(N=Nc2ccc(OC)c(S(=O)(=O)O)c2)c(C)cc1N=Nc1ccc(/C=C/c2ccc(N=[N+]([O-])c3ccc(/C=C/c4ccc(N=Nc5cc(C)c(N=Nc6ccc(OC)c(S(=O)(=O)O)c6)cc5OC)cc4S(=O)(=O)O)c(S(=O)(=O)O)c3)cc2S(=O)(=O)O)c(S(=O)(=O)O)c1`
## Result > 100 µM

## Task Respond only with TGI recorded for C/C=C(\C)C(=O)OC1/C=C(\C)CC/C=C(\C)CC2OC(=O)C(C)(OC(C)=O)C12 (stereo not drawn)
## Result > 100 µM

---

Tested on: OVCAR-8 ovarian
protocol: NCI tumour cell line growth inhibition, 48 h
The entries below come with measured TGI values attached.

In the examples that follow, each entry is paired with its recorded TGI.
compound=COc1cc(NCCCCCN=C(N)NC(N)=NC(C)C)c2ncccc2c1 tested_target="OVCAR-8 ovarian" value_observed="17.2 µM"
compound=C[CH2][Sn]([CH2]C)([O]C(=O)c1ccc(F)cc1)[O]C(=O)c1ccc(F)cc1 tested_target="OVCAR-8 ovarian" value_observed="> 79.2 µM"
compound="C[C@H]1[C@H](C)CC[C@]2(C(=O)OC3OC(CO)C(O)C(O)C3O)CC[C@]3(C)C(=CC[C@@H]4[C@@]5(C)C[C@@H](O)[C@@H]6OC(=O)c7cc(O)c(O)c(O)c7-c7c(cc(O)c(O)c7O)C(=O)OC[C@@]6(CO)[C@@H]5CC[C@]43C)[C@H]12 (stereo not given in full)" tested_target="OVCAR-8 ovarian" value_observed="> 100 µM"
compound="CSc1ncc2c(n1)-c1ccccc1OC2NC1CC1 (stereo not given)" tested_target="OVCAR-8 ovarian" value_observed="> 100 µM"

## Task Respond only with TGI recorded for COc1c(N2CCN(CN3C(=O)C(=Nc4ccc(S(=O)(=O)Nc5ncccn5)cc4)c4cc(Cl)ccc43)C(C)C2)c(F)cc2c(=O)c(C(=O)O)cn(C3CC3)c12 (stereo not given)
## Result > 50 µM

---

Test system: UACC-257 melanoma
protocol: NCI tumour cell line growth inhibition, 48 h
measurement name: TGI

In the examples that follow, each entry is paired with its recorded TGI.
molecule=CCOC(=O)c1csc(NC(=O)CCN2CCCC2)n1 measurement_name=TGI value_observed="> 100 µM"
molecule=COc1cc2c3c(n(CCCNCCCN)c(=O)c2cc1OC)-c1cc2c(cc1C3=O)OCO2 measurement_name=TGI value_observed="23 µM"
molecule=COc1cc(NCCCCCN=C(N)NC(N)=NC(C)C)c2ncccc2c1 measurement_name=TGI value_observed="4.81 µM"
molecule=CSc1ccc(/C=C2\N=C(c3ccccc3)N(c3nc4cc(Cl)c(F)cc4s3)C2=O)cc1 measurement_name=TGI value_observed="> 100 µM"
molecule="CCCCN(CCCC)CC(C(C)=O)C(c1ccccc1)c1c(O)c2ccccc2oc1=O (centres undefined)" measurement_name=TGI value_observed="> 100 µM"

Could you now look at the following molecule, please?
## Task Respond only with TGI recorded for `O/N=C/c1ccc(O)c(O)c1`
## Result > 100 µM

---

Tested on: MOLT-4 leukemia
protocol: NCI tumour cell line growth inhibition, 48 h
The entries below come with measured TGI values attached.

In the examples that follow, each entry is paired with its recorded TGI.
compound="CC/C=N\\N1C(N)=C(C#N)C(C#N)(C#N)C1CC (stereo not drawn)" value_observed="> 100 µM"
compound=O=C1c2cc3c(cc2-c2c1c1ccc(Cl)cc1c(=O)n2CCCn1ccnc1)OCO3 value_observed="1.17 µM"

Could you now look at the following compound, please?
## Task Respond only with TGI recorded for `COc1ccc2c(c1)CCc1c-2n[nH]c1-c1[nH]nc2c1CCc1cc(OC)ccc1-2`
## Result > 100 µM

---

System: MDA-MB-231 breast
protocol: NCI tumour cell line growth inhibition, 48 h
measurement name: TGI

## Task Respond only with TGI recorded for `O=c1c2ccc(Cl)cc2oc2c(CNc3ccc(S(=O)(=O)Nc4ncccn4)cc3)cccc12`
## Result > 100 µM

## Task Respond only with TGI recorded for `CO/N=C(\COc1ccc2oc(-c3ccccc3)cc(=O)c2c1)c1ccc(F)cc1`
## Result 39 µM

## Task Respond only with TGI recorded for `Nc1cccc2c1C(=O)c1cccc(NC(=O)c3ccccc3)c1C2=O`
## Result > 100 µM

## Task Respond only with TGI recorded for `Cc1cn(S(=O)(=O)c2ccccc2)c2c(OCc3ccccc3)cc(NC(=O)c3cc4cc([N+](=O)[O-])ccc4s3)cc12`
## Result > 100 µM

## Task Respond only with TGI recorded for `CCn1c(-c2nonc2N)nc2c(N3CCCC3)nccc21`
## Result > 25 µM

## Task Respond only with TGI recorded for `CN1CCN(CCCOc2cc(O)c3c(=O)cc(-c4ccccc4)oc3c2)CC1`
## Result 31.7 µM

---

Test system: HCT-15 colon
protocol: NCI tumour cell line growth inhibition, 48 h
The entries below come with measured TGI values attached.

molecule="CCCn1cc2c3c(cccc31)C1C=C(C)CN(C)C1C2 (stereo unspecified)" tested_target="HCT-15 colon" measurement_name=TGI value_observed="49 µM"

## Task Respond only with TGI recorded for COc1cc2c(c(OC)c1)[C@H](C)N(Cc1ccccc1)C(C)C2 (stereo partly specified)
## Result > 100 µM

## Task Respond only with TGI recorded for NC(Cc1ccccc1)c1nccs1 (stereo unspecified)
## Result > 100 µM

## Task Respond only with TGI recorded for `COc1cc(CNc2oc(-c3ccccc3)c(-c3ccccc3)c2C#N)cc(CN2CCN(C)CC2)c1O`
## Result 2.77 µM

## Task Respond only with TGI recorded for `CC(C)(C)N=NC(C)(C)N=C=O`
## Result > 100 µM

## Task Respond only with TGI recorded for `CCOC(=O)/C=C/CCC(C)(C)COC(C)=O`
## Result > 10 µM

---

Tested on: SK-MEL-5 melanoma
protocol: NCI tumour cell line growth inhibition, 48 h
The entries below come with measured TGI values attached.

molecule=O=C(c1ccc([N+](=O)[O-])cc1)N1CCCC1 measurement_name=TGI value_observed="> 100 µM"
molecule="O=C1CC[C@@]23CC(=O)O[C@@H]2CCCC3C1 (stereo partly specified)" measurement_name=TGI value_observed="> 100 µM"
molecule=O=C[C@@H](CO)O[C@H](C=O)n1cnc2c(=O)[nH]cnc21 measurement_name=TGI value_observed="1150 µM"
molecule=CSc1nc(=O)c2nc(-c3cccs3)c(-c3cccs3)nc2n1C measurement_name=TGI value_observed="> 100 µM"
molecule=CC(=O)/C(=N\Nc1ccc(Cl)cc1)C(C)=Nc1ccc(C)cc1 measurement_name=TGI value_observed="38.8 µM"

## Task Respond only with TGI recorded for `O=C1N=C(Nc2nc(-c3csc(NC4=NC(=O)/C(=C\c5ccccc5)S4)n3)cs2)S/C1=C/c1ccccc1`
## Result 33.4 µM

## Task Respond only with TGI recorded for O=C1c2cc3c(cc2CC12Cc1ccc4c(c1C2=O)CCC4)CCC3 (stereo unspecified)
## Result > 100 µM

## Task Respond only with TGI recorded for C/C(=C\CSCC(N)C(=O)O)CC/C=C(\C)CNc1ccccc1 (stereo unspecified)
## Result > 100 µM

## Task Respond only with TGI recorded for `COc1ccc(-c2cc3cc(Cl)cc(Cl)c3oc2=O)cc1OC`
## Result > 100 µM

## Task Respond only with TGI recorded for `CNC(=O)c1cncc(/C=C/c2ccccc2Cl)c1`
## Result > 25 µM

## Task Respond only with TGI recorded for `CC(C)(C)N=NC(C)(C)N=C=O`
## Result > 100 µM

## Task Respond only with TGI recorded for `COC(=O)N[C@H]1CCc2c(Cl)c(OC)c(OC)c(OC)c2-c2ccc(SC)c(=O)cc21`
## Result < 0.0127 µM

## Task Respond only with TGI recorded for CC1=C(C(=O)OCCO[N+](=O)[O-])C(c2ccccc2[N+](=O)[O-])C(C(=O)OC(C)C)=C(C)N1 (stereo unspecified)
## Result 26.8 µM

## Task Respond only with TGI recorded for `O=C(NC(C(F)(F)F)(C(F)(F)F)P(=O)(Cc1ccccc1)Cc1ccccc1)C(C(F)(F)F)C(F)(F)F`
## Result 29.1 µM

All figures here come from PubChem BioAssay (NCI).
